- Target: Gal(b1-4)GlcNAc(b1-3)Gal(b1-4)GlcNAc(b1-3)Gal(b1-4)GlcNAc(b1-3)Gal(b1-4)GlcNAc(b1-3)Gal(b1-4)GlcNAc(b1-3)Gal(b1-4)GlcNAc(b1-2)Man(a1-3)[Gal(b1-4)GlcNAc(b1-3)Gal(b1-4)GlcNAc(b1-3)Gal(b1-4)GlcNAc(b1-3)Gal(b1-4)GlcNAc(b1-3)Gal(b1-4)GlcNAc(b1-3)Gal(b1-4)GlcNAc(b1-2)Man(a1-6)]Man(b1-4)GlcNAc(b1-4)GlcNAc
- Method summary: glycan array binding signal (z-score within array); higher = stronger binding
- Condition set: glycan notation: IUPAC condensed, linker removed
This excerpt belongs to a sample that is enriched for the strongest signals.
Observed property: glycan array binding signal (z-score)
The answer should be a number; do not append a unit.

Binder | glycan array binding signal (z-score)
LCA (Lens culinaris), P02870 (protein) MASLQTQMISFYLIFLSILLTTIFFFKVNSTETTSFSITKFSPDQKNLIFQGDGYTTKGKLTLTKAVKSTVGRALYSTPIHIWDRDTGNVANFVTSFTFVIDAPSSYNVADEFTFFIAPVDTKPQTGGGYLGVFNSKEYDKTSQTVAVEFDTFYNAAWDPSNKERHIGIDVNSIKSVNTKSWNLQNGERANVVIAFNAATNVLTVTLTYPNSLEEENVTSYTLNEVVPLKDVVPEWVRIGFSATTGAEFAAHEVHSWSFHSELGGTSSSKQAADA | -0.192

Sample CML1 (Coprinopsis cinerea) (protein) MAIFHTGSELFIITRGPGKLTLLTWGGLNNLRSVIGAIPTENTGVTKWAVSFSHNYTRFSFIWEGQGEACYQIGNGLTRSPVGRSWSSSSTIHWGSSTVITEDVTSVVPGAVNRDKVTTAYALPDNL ; glycan array binding signal (z-score) observed: -0.303

Sample Gal 3C (Homo sapiens), P17931 (protein) YGAPAGPLIVPYNLPLPGGVVPRMLITILGTVKPNANRIALDFQRGNDVAFHFNPRFNENNRRVIVCNTKLDNNWGREERQSVFPFESGKPFKIQVLVEPDHFKVAVNDAHLLQYNHRVKKLNEISKLGISGDIDLTSASYTMI ; glycan array binding signal (z-score) observed: 4.39
